Source of measurements: PubChem BioAssay (NCI)

test system: DU-145 prostate; assay: NCI tumour cell line growth inhibition, 48 h
parameter_measured: TGI

Completed entries (count: 5):
compound: O=CNc1ccc2c(c1)C(=O)c1ccccc1-2
TGI: > 100 µM

compound: O=C(C1OC1c1ccc(Br)cc1O)C12CC3CC(CC(C3)C1)C2 (stereo not drawn)
TGI: > 100 µM

compound: C=C1CCN2CC[C@@H](OC(=O)/C(C)=C\C)[C@@H]12
TGI: > 100 µM

compound: CCN1C(=O)N(c2ccccc2)C2NC(=S)N(/N=C/C=C/c3ccccc3OC)C21 (stereo not drawn)
TGI: > 34.4 µM

compound: Cc1ccccc1OC(C)C(=O)NN1C(=O)CSC1c1ccccc1 (stereo not drawn)
TGI: > 100 µM

Please state, for each entry, its recorded TGI.
1. O=C(Cc1ccc(O)c(O)c1)NCc1c[nH]c2ccccc12
2. COc1cc(S(=O)(=O)Nc2nc(-c3ccc(N4C(=O)C(CC(=O)O)SC4c4cccs4)cc3)cs2)ccc1Cl (stereo not drawn)
3. Cc1nnc(NC(=O)c2nc(S(=O)(=O)Cc3ccc(F)cc3)ncc2Cl)s1
4. CCN(Cc1ccc(F)cc1)c1cc(Cl)c(CO)c(Cl)c1
5. O=C(O)c1nc2nc(Cl)c(Cl)nc2[nH]1

### Response
1: > 100 µM; 2: > 100 µM; 3: 21.7 µM; 4: 31.6 µM; 5: > 100 µM

Record TGI for all entries; do not skip any.
1. O=C1CCC2(c3ccc(Cl)cc3)Nc3ccncc3N12 (stereo not drawn)
2. S=C(N/N=C(/c1ccccc1)c1ccccn1)N(Cc1ccccn1)Cc1ccccn1
3. O=[N+]([O-])c1cc(C=NC23CC4CC(CC(C4)C2)C3)ccc1Cl
4. NC1(c2cc3ccccc3s2)CCCC1
5. O=[N+]([O-])c1ccc(Cl)cc1N/N=C/c1ccnc2ccccc12
6. COC(=O)C1=C(C(=O)OC)SC(=C2SCSC3=C2SC(C(=O)OC)=C(C(=O)OC)C32SC3=C(CCCC3)S2)S1

### Response
1: > 10 µM; 2: 4.42 µM; 3: > 60.4 µM; 4: > 100 µM; 5: > 100 µM; 6: > 100 µM

Provide reported TGI for each item, in the same order as listed.
1. CC(=O)Oc1cccc2c1C(=O)CCCC2
2. O=C(N/N=C/c1ccc(Cl)cc1)c1c(Cl)c(Cl)c(Cl)c(Cl)c1-c1nc2ccccc2[nH]1
3. Nn1c(-c2ccccc2)n[nH]c1=O
4. Cn1c2ccc3cc2c(=S)c2cc(ccc21)OCCOCCOCCOCCOCCOCCO3
5. CCC(=O)NCC1CCCN2CCCCC12 (stereo not drawn)

### Response
["> 100 µM", "> 100 µM", "> 100 µM", "> 10 µM", "> 100 µM"]

For every listed record, write down its TGI.
1. CC1CN(C)c2ccccc2N=C1NN (stereo not drawn)
2. Cc1cc(C)nc(NS(=O)(=O)c2ccc(NC(=O)c3ccc4nc5ccccc5c(Nc5ccc(S(N)(=O)=O)cc5)c4c3)cc2)n1

### Response
["> 100 µM", "> 100 µM"]

----------
test system: UO-31 renal; assay: NCI tumour cell line growth inhibition, 48 h
Provide the reported GI50 of each item.

Previously resolved entries follow.
compound: COc1ccc(/C=N/NC(=O)c2cccc3cc[nH]c23)cc1O
tested_system: UO-31 renal
GI50: 6.51 µM
//
compound: CCCCCCCCCCCCC(O)c1ccc(C#CCCCCCCCCCO)o1 (centres undefined)
tested_system: UO-31 renal
GI50: 19.9 µM

Provide each entry's GI50 from the list below.
1. CCOC(=O)C1=C(C)N(c2ccc(F)cc2F)[C@]2(C#N)C(O)=C(Cl)C(Cl)=C(O)[C@]12C#N
2. N#Cc1c[nH]n2c(N=Nc3ccc(Cl)cc3)c(O)nc12

### Response
1. > 100 µM
2. 32.3 µM

----------
test system: DMS 273 small cell lung; experiment: NCI tumour cell line growth inhibition, 48 h
Exercise: state measured TGI for each of the molecules provided.

Solved entries:
molecule: CCCCCCCC/C=C\CCCCCCCCCCCC(=O)O
TGI: 48.7 µM

molecule: COC(=O)C(CCCN1C(=O)c2ccccc2C1=O)C(=O)OC
TGI: > 100 µM

molecule: Nc1nc(SCCC/C=C/I)nc2c1ncn2C1OC(COP(=O)(O)O)C(O)C1O (configuration not stated)
TGI: > 100 µM

Hi there! I need TGI for each item below, if you can.
1. C/C(=N/Nc1ccc([N+](=O)[O-])cc1[N+](=O)[O-])C(CC(C(=O)NCc1ccccc1)/C(C)=N\Nc1ccc([N+](=O)[O-])cc1[N+](=O)[O-])C(=O)NCc1ccccc1 (configuration not stated)
2. CCCCCC[C@@H]1CCC2C(CO)[C@@H](O)CC[C@@H]2C1 (some centres not stated)
3. Cc1ccc(NC(=O)CC2Sc3ccccc3NC2=O)cc1C (configuration not stated)
4. CC(=O)NNc1nc(C)c(C(=O)/C=C/c2ccc(NC(C)=O)cc2)s1
5. CN(C)CC1CC/C(=C\c2ccc(O)cc2)C1=O (configuration not stated)
6. N#C/C(=C1/Sc2c(nc[nH]c2=O)N1c1ccccc1)c1nc2ccccc2[nH]1

### Response
["20.4 µM", "39.4 µM", "> 100 µM", "> 100 µM", "9.68 µM", "> 100 µM"]

Hi, could you look up TGI for each item in my list?
1. NC(=O)c1ccccc1NC(=O)C(=O)C(C(=O)c1ccc(Cl)c(Cl)c1)C1OC(=O)c2ccccc21 (configuration not stated)
2. O=c1ccc2ccccc2cc1[O-].O=c1ccc2ccccc2cc1[O-].[O]=[U+2]=[O]
3. COc1nc(NC2OC(COC(C)=O)C(OC(C)=O)C(OC(C)=O)C2OC(C)=O)c2c(OC(C)=O)cc(=O)oc2n1 (configuration not stated)

### Response
1. > 100 µM
2. > 100 µM
3. > 100 µM

----------
Consider the following molecules; for each one, report its TGI.
system: HOP-92 NSCLC; test: NCI tumour cell line growth inhibition, 48 h
Answers are plain numbers, in µM.

// for each molecule in input: emit TGI
1. C=C1C(=O)O[C@H]2[C@H]1CC/C(COC(=O)NCc1ccc(Cn3c(=O)sn(-c4ccc(OC)cc4)c3=O)cc1)=C\CC[C@@]1(C)O[C@@H]21
2. C[C@]12CC[C@H](O)CC1=CC[C@@H]1[C@@H]2CC[C@]2(C)C(=N/N)/C(=N\O)C[C@@H]12
3. O=C(C1OC1c1ccc(Br)cc1O)C12CC3CC(CC(C3)C1)C2 (stereo not given)
4. O=c1ccc2ccccc2cc1[O-].O=c1ccc2ccccc2cc1[O-].[O]=[U+2]=[O]

### Response
3.47
11.8
48.8
72.1

----------
tested on: T-47D breast; test: NCI tumour cell line growth inhibition, 48 h; in the data active = GI50 below about 0.43 µM; inactive = the rest
The reply should name one outcome from active, inactive

molecule: O=C1c2cc3c(cc2-c2c1c1ccc(F)cc1c(=O)n2C[C@H](O)[C@@H](O)[C@H](O)CO)OCO3
discrete_label: active
--
molecule: COc1ccc(C2[C@@H](c3ccccc3)C(=O)N2c2cc(OC)c(OC)c(OC)c2)cc1F (stereo partly drawn)
discrete_label: inactive
--
molecule: COc1ccc(CCN=C2NC(=O)/C(=C/c3ccc4ncccc4c3)S2)cc1
discrete_label: inactive
--
molecule: c1ccc(Sc2ncnc3ccccc23)cc1
discrete_label: inactive
--
molecule: O=C(CCCSc1nc(-c2ccccc2)cc(-c2ccccc2)n1)NO
discrete_label: inactive
--
molecule: Nc1c(C(=O)Nc2cccc(C(F)(F)F)c2)sc2nc3c(cc12)CCCCC3
discrete_label: inactive
--
molecule: Nc1ccccc1SC(CC(=O)c1ccccc1)c1cccc([N+](=O)[O-])c1 (stereo not drawn)
discrete_label: inactive
--
molecule: O=C1CCCCN1c1ccccc1C#C/C=C\C#Cc1ccccc1C(F)(F)F
discrete_label: inactive

### Prompt Fill in: this test's call for C=C1C(=O)O[C@H]2[C@H]1CC/C(COC(=O)NCc1ccc(Cn3c(=O)sn(-c4ccc(OC)cc4)c3=O)cc1)=C\CC[C@@]1(C)O[C@@H]21 is ___
### Response inactive

### Prompt What call does the record list for COc1ccc2nc3cc(Cl)ccc3c(NCCNCC(C)O)c2c1 (stereo not drawn) ?
### Response inactive

----------
system: SK-OV-3 ovarian; test: NCI tumour cell line growth inhibition, 48 h
parameter_measured: TGI

Reference set (3 entries):
compound: COC[C@H]1Cn2cc(-c3nc(Nc4ccnn4C)ncc3C)nc2C(=O)N1Cc1ccc(F)c(F)c1
TGI: > 100 µM
//
compound: O=C1CCCCC1CN1CCCCC1 (configuration not stated)
TGI: > 100 µM
//
compound: COc1ccc2[nH]cc(/C=C(/C)c3ccncc3)c2c1
TGI: 35.6 µM

# return TGI for each item in the list
1. [N-]=[N+]=NC(c1ccccc1)(c1ccccc1)c1ccccc1
2. O=C1CCCCN1c1ccccc1C#C/C=C\C#Cc1ccccc1C(F)(F)F
3. O=c1ccc2ccccc2cc1[O-].O=c1ccc2ccccc2cc1[O-].[O]=[U+2]=[O]
4. C=C1CCN2CC[C@@H](OC(=O)/C(C)=C\C)[C@@H]12

### Response
["> 100 µM", "> 50 µM", "71.2 µM", "> 100 µM"]
